- Experimental protocol: The pharmacokinetic parameter, clearance was reported in dog after intravenous administration
- Type: ADME, organism-based, Canis lupus familiaris
- Assay conditions: in vivo
Measured property: clearance
Please provide the amount together with its unit, number first.

# Test smiles, clearance
data = [
    ("CC1(C)NC(=O)N(CC(=O)NCc2cc3cc(C(=O)N4CCC(N5C(=O)OCc6ccccc65)CC4)ccc3o2)C1=O", "20 mL/min/kg"),
    ("CN1CCC(=O)N(CC(=O)NCc2cc3cc(C(=O)N4CCC(N5C(=O)OCc6ccccc65)CC4)ccc3o2)C1=O", "27 mL/min/kg"),
    ("CC(=O)NCCc1cc2cc(C(=O)N3CCC(N4C(=O)OCc5ccccc54)CC3)ccc2o1", "9 mL/min/kg"),
    ("CN1CC(=O)N(CC(=O)NCc2cc3cc(C(=O)N4CCC(N5C(=O)OCc6ccccc65)CC4)ccc3o2)C1=O", "20 mL/min/kg"),
]

input: Provide measured clearance value, entry: CC(=O)NCC(=O)NCc1cc2cc(C(=O)N3CCC(N4C(=O)OCc5ccccc54)CC3)ccc2o1
output: 18 mL/min/kg

input: Indicate its recorded clearance; the molecule in question is CS(=O)(=O)N1CCC(c2cc3cc(C(=O)N4CCC(N5C(=O)OCc6ccccc65)CC4)ccc3o2)CC1
output: 9 mL/min/kg

input: Name the recorded clearance of the item O=C(CN1C(=O)CNC1=O)NCc1cc2cc(C(=O)N3CCC(N4C(=O)OCc5ccccc54)CC3)ccc2o1 in your answer.
output: 17 mL/min/kg
